Test Target: anti-FXI/FXIa antibody NOV1401
Test Method Notes: cell-based or functional assay
Property Label: percentage reversal of NOV1401 aPTT prolongation, NOV1401/anti NOV1401 ratio 1/1 (n/n) (%)
Just the number please, in %, no unit attached.

See these solved cases before continuing.
Q: Please give measured percentage reversal of NOV1401 aPTT prolongation, NOV1401/anti NOV1401 ratio 1/1 (n/n) of the following entry: IDT5 anti-NOV1401 Fab (Fab, V domains shown, Human Fab; The heavy chain entry is VH-CH1 (Fd); also called antidote) VH: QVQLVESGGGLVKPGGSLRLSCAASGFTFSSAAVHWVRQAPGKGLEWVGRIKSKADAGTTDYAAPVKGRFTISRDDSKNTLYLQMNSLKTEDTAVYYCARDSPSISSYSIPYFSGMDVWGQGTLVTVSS VL: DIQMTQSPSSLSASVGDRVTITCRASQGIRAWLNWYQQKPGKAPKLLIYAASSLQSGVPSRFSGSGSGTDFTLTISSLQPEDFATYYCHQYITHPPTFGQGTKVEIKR
Ans: 17

Q: Check the records and state percentage reversal of NOV1401 aPTT prolongation, NOV1401/anti NOV1401 ratio 1/1 (n/n) for IDT1 anti-NOV1401 Fab (Fab, V domains shown, The heavy chain entry is VH-CH1 (Fd); also called antidote) VH: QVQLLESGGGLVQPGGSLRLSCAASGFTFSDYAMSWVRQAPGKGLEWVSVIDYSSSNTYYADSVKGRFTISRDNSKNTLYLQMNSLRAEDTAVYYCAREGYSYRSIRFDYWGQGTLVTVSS VL: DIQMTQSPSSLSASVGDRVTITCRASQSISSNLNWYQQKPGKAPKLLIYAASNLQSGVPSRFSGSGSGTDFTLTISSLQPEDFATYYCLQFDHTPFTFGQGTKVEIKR
Ans: 12

Q: Using known records, supply percentage reversal of NOV1401 aPTT prolongation, NOV1401/anti NOV1401 ratio 1/1 (n/n) for IDT3 anti-NOV1401 Fab (Fab, V domains shown, Human Fab; The heavy chain entry is VH-CH1 (Fd); also called antidote) VH: QVQLVESGGGLVKPGGSLRLSCAASGFTFQSAAVHWVRQAPGKGLEWVGRIKSKADGGTTDYAAPVKGRFTISRDDSKNTLYLQMNSLKTEDTAVYYCARDSPSISSYSIPYFSGMDVWGQGTLVTVSS VL: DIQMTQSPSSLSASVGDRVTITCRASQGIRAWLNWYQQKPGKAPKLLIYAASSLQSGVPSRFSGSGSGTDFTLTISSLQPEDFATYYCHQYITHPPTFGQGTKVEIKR
Ans: 9

Q: Using the record for IDT2 anti-NOV1401 Fab (Fab, V domains shown, Human Fab; The heavy chain entry is VH-CH1 (Fd); also called antidote) VH: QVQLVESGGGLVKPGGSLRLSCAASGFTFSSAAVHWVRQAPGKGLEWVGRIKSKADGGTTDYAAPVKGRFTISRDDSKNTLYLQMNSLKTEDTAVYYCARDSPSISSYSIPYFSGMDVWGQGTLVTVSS VL: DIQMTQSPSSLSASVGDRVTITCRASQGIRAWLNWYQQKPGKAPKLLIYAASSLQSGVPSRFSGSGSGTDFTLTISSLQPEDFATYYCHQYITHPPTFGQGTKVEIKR , state its measured percentage reversal of NOV1401 aPTT prolongation, NOV1401/anti NOV1401 ratio 1/1 (n/n).
Ans: 21

---
Q: Specify measured percentage reversal of NOV1401 aPTT prolongation, NOV1401/anti NOV1401 ratio 1/1 (n/n) for IDT7 anti-NOV1401 Fab (Fab, V domains shown, Human Fab; The heavy chain entry is VH-CH1 (Fd); also called antidote) VH: QVQLVESGGGLVKPGGSLRLSCAASGFTFSSNAMHWVRQAPGKGLEWVGRIKSKTDGGTTDYAAPVKGRFTISRDDSKNTLYLQMNSLKTEDTAVYYCARDHYYYPFAYWGQGTLVTVSS VL: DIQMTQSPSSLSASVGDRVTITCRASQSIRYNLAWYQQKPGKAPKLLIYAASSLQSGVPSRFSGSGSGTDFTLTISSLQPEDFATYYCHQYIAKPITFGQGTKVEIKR .
Ans: 16
